These entries and their values trace back to ChEMBL document CHEMBL1154378.

Organism: Homo sapiens
Test: Selectivity, ratio of Ki for human histaminee H4 receptor to Ki for human histamine H3 receptor
Binary call on Ratio Ki with cut-off 20: strictly below means rule met, and equality or higher means rule not met.

# COMPOUND, CATEGORY
data = [
    ("CCC(C)CCNC(=O)OCCCc1c[nH]cn1 (racemic)", "rule met"),
    ("CC[C@H](C)CNC(=O)OCCCc1c[nH]cn1", "rule not met"),
    ("CCCCC(CC)CNC(=O)OCCCc1c[nH]cn1 (racemic)", "rule not met"),
    ("CC[C@@H](C)NC(=O)OCCCc1c[nH]cn1", "rule not met"),
]

---

Biological target: Histamine H3 receptor (Homo sapiens, UniProt Q9Y5N1)
Sequence (Q9Y5N1 whole entry): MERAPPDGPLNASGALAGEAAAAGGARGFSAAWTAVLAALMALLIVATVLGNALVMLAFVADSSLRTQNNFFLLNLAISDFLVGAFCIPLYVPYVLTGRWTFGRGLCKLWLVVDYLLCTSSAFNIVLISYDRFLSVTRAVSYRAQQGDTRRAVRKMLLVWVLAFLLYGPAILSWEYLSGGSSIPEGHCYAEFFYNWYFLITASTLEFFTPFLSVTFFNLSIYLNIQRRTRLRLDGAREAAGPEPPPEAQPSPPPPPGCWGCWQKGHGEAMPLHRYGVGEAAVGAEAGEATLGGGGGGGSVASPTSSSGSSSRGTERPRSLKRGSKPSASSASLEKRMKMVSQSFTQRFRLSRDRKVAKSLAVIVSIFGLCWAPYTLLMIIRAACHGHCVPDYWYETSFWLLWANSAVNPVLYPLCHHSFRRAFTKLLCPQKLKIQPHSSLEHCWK
Assay: Displacement of [125I]iodoproxyfan from human histamine H3 receptor expressed in CHO-K1 cells
Binary call on Ki with cut-off 40 nM: strictly below means class 1, and equality or higher means class 0.

# COMPOUND, TARGET_OF_ASSAY, CATEGORY
data = [
    ("CC[C@H](C)NC(=O)OCCCc1c[nH]cn1", "Histamine H3 receptor (Homo sapiens, UniProt Q9Y5N1)", "class 1"),
    ("CCC(C)NC(=O)OCCCc1c[nH]cn1 (racemic)", "Histamine H3 receptor (Homo sapiens, UniProt Q9Y5N1)", "class 0"),
    ("CCCCC[C@H](C)NC(=O)OCCCc1cnc[nH]1", "Histamine H3 receptor (Homo sapiens, UniProt Q9Y5N1)", "class 0"),
    ("CCCC[C@@H](C)NC(=O)OCCCc1cnc[nH]1", "Histamine H3 receptor (Homo sapiens, UniProt Q9Y5N1)", "class 1"),
    ("CCCC(C)NC(=O)OCCCc1c[nH]cn1 (racemic)", "Histamine H3 receptor (Homo sapiens, UniProt Q9Y5N1)", "class 1"),
    ("CCCCC(CC)CNC(=O)OCCCc1cnc[nH]1 (racemic)", "Histamine H3 receptor (Homo sapiens, UniProt Q9Y5N1)", "class 1"),
]
